Read-out: Vascular cell adhesion molecule 1 (VCAM1), VCAM1 (gene 7412)
Assay: BSK_hDFCGF_VCAM1: BioMAP Diversity Plus: hDFCGF Assay for Vascular cell adhesion molecule 1 (VCAM1) Biomarker Activity (AID 2283065)
Conditions: primary human foreskin fibroblasts; actives raise or lower the signal
Protocol: BSK_hDFCGF is a cell-based, multiplexed-readout assay that uses foreskin fibroblast, a human skin primary cell, with measurements taken at 24 hours after chemical dosing in a 96-well plate.BSK_hDFCGF_VCAM1 is an assay component measured in the BSK_hDFCGF assay. It measures VCAM-1 antibody related to regulation of gene expression using ELISA technology.Data from the assay component BSK_hDFCGF_VCAM1 was analyzed into 1 assay endpoint. […]
Activity calls are given as the source filed them. Rule for the calls: active = hit-call score of the fitted dose curve at least 0.9, where 1 is the maximum; inactive = score below 0.9.
Select the matching outcome among active, inactive

Could you check what this test reported for CSC(=O)c1c(C(F)F)nc(C(F)(F)F)c(C(=O)SC)c1CC(C)C ? active

Could you check what this test reported for CC(C)=CC1C(C(=O)OCc2coc(Cc3ccccc3)c2)C1(C)C (stereo unspecified) ? inactive

Could you check what this test reported for CS(=O)(=O)c1cc(C(F)(F)F)ccc1C(=O)c1cnoc1C1CC1 ? inactive

Could you check what this test reported for CCNP(=S)(OC)O/C(C)=C/C(=O)OC(C)C (stereo unspecified) ? inactive

Could you check what this test reported for COC(=O)N(C(=O)N1CO[C@@]2(C(=O)OC)Cc3cc(Cl)ccc3C2=N1)c1ccc(OC(F)(F)F)cc1 ? inactive

* * *

test: APR_HepG2_CellLoss_24hr: Apredica 24-hour HepG2 Assay for Cell Loss (AID 2282908); settings: high-content imaging
Activity calls are given as the source filed them. The calls were made as follows: active = hit-call score of the fitted dose curve at least 0.9, where 1 is the maximum; inactive = score below 0.9.
Select the matching outcome among active, inactive

Answered cases to consult:
compound=Clc1nc(Cl)nc(Nc2ccccc2Cl)n1 discrete_label=inactive
compound="CCC(C)n1c(=O)[nH]c(C)c(Br)c1=O (stereo unspecified)" discrete_label=inactive
compound=Cc1ccc(N=CN(C)C=Nc2ccc(C)cc2C)c(C)c1 discrete_label=active
compound=CN=C=S discrete_label=inactive
compound="CCOC(=O)C(C)OC(=O)c1cc(Oc2ccc(C(F)(F)F)cc2Cl)ccc1[N+](=O)[O-] (stereo unspecified)" discrete_label=inactive

--- query ---
Could you check what this test reported for CCCCOCN(C(=O)CCl)c1c(CC)cccc1CC ? active

* * *

read-out: Apoptosis regulator Bcl-2 (Homo sapiens) (UniProt P10415); assay: LTEA_HepaRG_BCL2: Life Technologies and Expression Analysis (LTEA) Assay for Bcl-2 gene using HepaRG (AID 2283475); settings: mRNA level, 48 h; actives raise or lower the signal;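 note: BCL2 transcript by TaqMan qRT-PCR normalised to ACTB GAPDH and POLR2A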
Sequence (P10415 whole entry, looked up): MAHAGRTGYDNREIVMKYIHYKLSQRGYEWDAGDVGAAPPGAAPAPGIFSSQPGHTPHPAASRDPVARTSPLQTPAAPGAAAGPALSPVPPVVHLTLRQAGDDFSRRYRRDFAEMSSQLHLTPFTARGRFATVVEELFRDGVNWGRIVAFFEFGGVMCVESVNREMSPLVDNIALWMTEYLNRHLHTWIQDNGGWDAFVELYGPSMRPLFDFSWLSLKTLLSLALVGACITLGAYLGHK
Activity calls are given as the source filed them. The calls were made as follows: active = hit-call score of the fitted dose curve at least 0.9, where 1 is the maximum; inactive = score below 0.9.
Select the matching outcome among active, inactive

Answered cases to consult:
compound=OC(c1ccc(Cl)cc1)(c1ccc(Cl)cc1)C(Cl)(Cl)Cl discrete_label=active
compound=CN/C(=N\[N+](=O)[O-])NCc1cnc(Cl)s1 discrete_label=inactive
compound=COP(=S)(OC)SCn1nnc2ccccc2c1=O discrete_label=inactive
compound=CCOP(=S)(OCC)Oc1nc(Cl)n(C(C)C)n1 discrete_label=inactive
compound="COCc1cnc(C2=NC(C)(C(C)C)C(=O)N2)c(C(=O)O)c1 (stereo unspecified)" discrete_label=inactive

Could you check what this test reported for O=C1C2CC=CCC2C(=O)N1SC(Cl)(Cl)Cl (stereo unspecified) ? inactive

* * *

target: Retinoic acid receptor alpha (Homo sapiens); assay: NVS_NR_hRAR_Antagonist: NovaScreen (NVS) Nuclear Receptor Binding Assay for human Retinoic Acid Alpha Receptor Antagonism (RAR) (AID 2283358)
Results filed as inconclusive are left out. The source made the active and inactive calls. The calls were made as follows: active = hit-call score of the fitted dose curve at least 0.9, where 1 is the maximum; inconclusive = response in the unintended direction; inactive = score below 0.9.
PROPERTY NAME: outcome

Look over these answered cases.
compound=CCN(CC)c1nc(C)cc(OP(=S)(OC)OC)n1 measurement_target="Retinoic acid receptor alpha (Homo sapiens)" property_name=outcome result=inactive
compound="CCOC(=O)C(C)OC(=O)c1cc(Oc2ccc(C(F)(F)F)cc2Cl)ccc1[N+](=O)[O-] (configuration not stated)" measurement_target="Retinoic acid receptor alpha (Homo sapiens)" property_name=outcome result=inactive
compound=O=c1n(Cl)c(=O)n(Cl)c(=O)n1Cl measurement_target="Retinoic acid receptor alpha (Homo sapiens)" property_name=outcome result=inactive
compound="CC1(C)C(C=C(Cl)Cl)C1C(=O)OC(C#N)c1cccc(Oc2ccccc2)c1 (configuration not stated)" measurement_target="Retinoic acid receptor alpha (Homo sapiens)" property_name=outcome result=inactive
compound="CCOc1cc(C(C)(C)C)ccc1C1COC(c2c(F)cccc2F)=N1 (configuration not stated)" measurement_target="Retinoic acid receptor alpha (Homo sapiens)" property_name=outcome result=inactive

Memo: CNC(=O)Oc1cccc2ccccc12 , reported outcome: inactive

Memo: CS(=O)(=O)c1cc(C(F)(F)F)ccc1C(=O)c1cnoc1C1CC1 , reported outcome: inactive
